Assay details: Pharmacokinetic study of orally administered racemic MPH in normal volunteers
Assay type: in vivo, human
Test parameters: male, human, plasma, oral, 0.3 mg/kg; Table 1, aberrant metabolizer; read-out: t1/2, Outlier (converted)
Measurement type: half-life (h)
Numbers only; they are read as h.

What does the record list as half-life for COC(=O)[C@H](c1ccccc1)[C@H]1CCCCN1 [d-MPH, methylphenidate] ?
5.4

###

Assay details: Pharmacokinetic study of orally administered racemic MPH in normal volunteers
Assay type: in vivo, human
Test parameters: human; mean ±SD of all other subjects; single oral 0.3 mg/kg racemic MPH; plasma
Measurement type: AUC(0-inf)

What does the record list as AUC(0-inf) for COC(=O)[C@H](c1ccccc1)[C@H]1CCCCN1 [d-MPH, methylphenidate] ?
83 ng·h/mL

###

Assay details: Pharmacokinetic study of orally administered racemic MPH in normal volunteers
Type: in vivo, human
Test parameters: human, plasma; mean ±SD of all other subjects; single oral 0.3 mg/kg racemic MPH; read-out: t1/2 (converted)
Measurement type: half-life
Could you write the number and then its unit?

What does the record list as half-life for COC(=O)[C@H](c1ccccc1)[C@H]1CCCCN1 [d-MPH, methylphenidate] ?
2.8 h

###

Assay details: Pharmacokinetic study of orally administered racemic MPH in normal volunteers
Type: in vivo, human
Test parameters: human, plasma, oral, 0.3 mg/kg; Table 1, 19 study peers; read-out: AUC, Mean (±SD)
Measurement type: AUC (ng·h/mL)
Numbers only; they are read as ng·h/mL.

What does the record list as AUC for COC(=O)[C@H](c1ccccc1)[C@H]1CCCCN1 [d-MPH, methylphenidate] ?
78.6

###

Assay details: Pharmacokinetic study of orally administered racemic MPH in normal volunteers
Assay type: in vivo, human
Test parameters: human, plasma, oral, 0.3 mg/kg; Table 1, 19 study peers; read-out: Cmax, Mean (±SD)
Measurement type: Cmax

What does the record list as Cmax for COC(=O)[C@H](c1ccccc1)[C@H]1CCCCN1 [d-MPH, methylphenidate] ?
13.8 ng/mL

###

Assay details: Pharmacokinetic study of orally administered racemic MPH in normal volunteers
Format: in vivo, human
Test parameters: human; mean ±SD of all other subjects; single oral 0.3 mg/kg racemic MPH; plasma; read-out: Cmax
Measurement type: Cmax

What does the record list as Cmax for COC(=O)[C@H](c1ccccc1)[C@H]1CCCCN1 [d-MPH, methylphenidate] ?
15 ng/mL

###

Assay details: Pharmacokinetic study of orally administered racemic MPH in normal volunteers
Assay type: in vivo, human
Test parameters: male, human, plasma; slow metabolizer; single oral 0.3 mg/kg racemic MPH; read-out: t1/2 (converted)
Measurement type: half-life (h)
Numbers only; they are read as h.

What does the record list as half-life for COC(=O)[C@H](c1ccccc1)[C@H]1CCCCN1 [d-MPH, methylphenidate] ?
5.4

###

Assay details: Pharmacokinetic study of orally administered racemic MPH in normal volunteers
Format: in vivo, human
Test parameters: human, plasma; mean ±SD of all other subjects; single oral 0.3 mg/kg racemic MPH
Measurement type: Tmax
Could you write the number and then its unit?

What does the record list as Tmax for COC(=O)[C@H](c1ccccc1)[C@H]1CCCCN1 [d-MPH, methylphenidate] ?
2.3 h

###

Assay details: Pharmacokinetic study of orally administered racemic MPH in normal volunteers
Type: in vivo, human
Test parameters: human, plasma, oral, 0.3 mg/kg; Table 1, 19 study peers; read-out: t1/2, Mean (±SD) (converted)
Measurement type: half-life (h)
Numbers only; they are read as h.

What does the record list as half-life for COC(=O)[C@H](c1ccccc1)[C@H]1CCCCN1 [d-MPH, methylphenidate] ?
3
